# System Tested: PDK1 kinase (Homo sapiens, UniProt O15530)
# Sequence (O15530 1-556): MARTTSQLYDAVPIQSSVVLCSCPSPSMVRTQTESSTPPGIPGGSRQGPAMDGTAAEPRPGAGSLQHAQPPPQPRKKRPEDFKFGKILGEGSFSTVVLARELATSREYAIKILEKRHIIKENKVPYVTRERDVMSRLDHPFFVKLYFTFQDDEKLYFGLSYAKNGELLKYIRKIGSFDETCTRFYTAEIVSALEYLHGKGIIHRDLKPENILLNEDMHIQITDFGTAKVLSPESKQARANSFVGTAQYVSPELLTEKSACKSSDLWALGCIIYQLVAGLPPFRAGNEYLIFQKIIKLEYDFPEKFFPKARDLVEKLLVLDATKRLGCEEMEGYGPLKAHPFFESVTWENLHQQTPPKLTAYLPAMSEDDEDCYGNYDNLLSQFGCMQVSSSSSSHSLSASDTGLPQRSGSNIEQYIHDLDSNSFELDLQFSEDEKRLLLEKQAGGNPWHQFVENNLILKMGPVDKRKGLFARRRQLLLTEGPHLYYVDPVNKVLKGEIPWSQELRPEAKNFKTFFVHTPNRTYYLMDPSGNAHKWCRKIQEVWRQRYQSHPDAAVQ
pIC50: −log10 of the molar value.
Outcome Measure: pIC50

Ask | Quick check: pIC50 of NC(=O)c1cc(Nc2ncc3cc(Br)ccc3n2)ccc1N1CCOCC1 ?
Reply | 5.00 to 5.30

Ask | Recorded pIC50 for C#Cc1cc2cnc(Nc3ccc(C(=O)N4CCOCC4)c(Cl)c3)nc2cc1OC , please?
Reply | > 5.30

Ask | Query (compound): Cc1ccc2nc(Nc3ccc(S(N)(=O)=O)cc3)ncc2c1 ; field requested: pIC50
Reply | > 5.30

Ask | I would be grateful if you could share the reported pIC50 for COc1cc(-c2nccs2)c(-c2nccs2)c2cnc(Nc3ccc(C(=O)N4CCOCC4)cc3)nc12 .
Reply | 5.00 to 5.30

Ask | So what does the record say about pIC50 for COc1cc(C)cc2cnc(Nc3ccc(S(N)(=O)=O)cc3)nc12 ?
Reply | > 5.30

Ask | Which pIC50 is listed for CC(C)NC(=O)c1ccc(Nc2ncc3cc(-c4nccs4)ccc3n2)cc1 ?
Reply | > 5.30

Ask | For the compound C#Cc1ccc2nc(Nc3cc(-c4ccncc4F)cc(N4CCOCC4)c3)ncc2c1 , what pIC50 is on record?
Reply | > 5.30

Ask | Look up pIC50 for this compound: CC(=O)Nc1cc(Nc2ncc3cc(Br)ccc3n2)cc(-c2cn[nH]c2)c1
Reply | > 5.30

Ask | Look at this compound and give its reported pIC50. C#Cc1ccc2nc(Nc3ccc(N4CCOCC4)cc3)ncc2c1F
Reply | > 5.30

---

Target sequence: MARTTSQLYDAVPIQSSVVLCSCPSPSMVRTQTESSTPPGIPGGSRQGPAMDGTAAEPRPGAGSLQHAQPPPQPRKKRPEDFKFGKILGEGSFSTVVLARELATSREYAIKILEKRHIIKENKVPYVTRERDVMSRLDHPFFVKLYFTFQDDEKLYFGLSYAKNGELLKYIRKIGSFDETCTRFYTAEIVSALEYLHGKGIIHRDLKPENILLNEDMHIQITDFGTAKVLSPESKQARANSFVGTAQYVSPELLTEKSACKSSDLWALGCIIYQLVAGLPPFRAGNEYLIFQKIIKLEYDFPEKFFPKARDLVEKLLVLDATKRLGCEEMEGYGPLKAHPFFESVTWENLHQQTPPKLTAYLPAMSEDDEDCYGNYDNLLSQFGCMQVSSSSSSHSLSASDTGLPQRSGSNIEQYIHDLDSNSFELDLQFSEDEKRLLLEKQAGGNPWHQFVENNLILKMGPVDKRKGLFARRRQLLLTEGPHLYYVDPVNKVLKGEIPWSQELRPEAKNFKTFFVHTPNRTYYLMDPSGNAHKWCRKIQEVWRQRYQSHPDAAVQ
pIC50: −log10 of the molar value.
Outcome Measure: pIC50

Ask | I have this molecule here, C#Cc1cc2cnc(Nc3cc(OC)cc(-n4nnnc4C)c3)nc2cc1OC , and I need its recorded pIC50.
Reply | 5.00 to 5.30

Ask | I am curious: what pIC50 value has been reported for CC(=O)Nc1cc(CN(C)C)cc(Nc2ncc3cc(Br)cc(F)c3n2)c1 ?
Reply | > 5.30

Ask | Given the molecule C#Cc1ccc2nc(Nc3ccc(N4CCOCC4)c(C(N)=O)c3)ncc2c1 , what is its reported pIC50?
Reply | > 5.30

Ask | Name the recorded pIC50 for COc1cc2nc(Nc3ccc(N4CCOCC4)cc3)ncc2cc1-c1cn[nH]c1 .
Reply | > 5.30

Ask | Query (molecule): CC#Cc1ccc2nc(Nc3cc(CN(C)C)cc(NC(C)=O)c3)ncc2c1 ; field requested: pIC50
Reply | > 5.30

---

pIC50: −log10 of the molar value.
Field: pIC50. Provide a value for each of the molecules that follow.

Ask | Form field - read-out: pIC50; system: PDK1 kinase (Homo sapiens); submitted item: CC(=O)Nc1cc(Nc2ncc3cc(Br)ccc3n2)cc(-c2cccnc2)c1 [Example 32]
Reply | > 5.30

Ask | Fill in the recorded pIC50 for this molecule, with PDK1 kinase (Homo sapiens) as test system: COc1cc(-c2nccs2)cc2cnc(Nc3ccc(S(N)(=O)=O)cc3)nc12 [Example 63]
Reply | > 5.30

Ask | Tell me reported pIC50 for COc1cc(Br)c(Cl)c2cnc(Nc3ccc(C(=O)NC(C)C)cc3)nc12 [Example 89] , tested with PDK1 kinase (Homo sapiens).
Reply | > 5.30

Ask | // map CC(=O)Nc1cc(CN(C)C)cc(Nc2ncc3cc(Br)ccc3n2)c1 [Example 147] to recorded pIC50 (system: PDK1 kinase (Homo sapiens))
Reply | > 5.30

Ask | State its pIC50 on PDK1 kinase (Homo sapiens): C#Cc1cc(Cl)c2nc(Nc3cc(CN(C)C)cc(NC(C)=O)c3)ncc2c1 [Example 7]
Reply | > 5.30
